Target or system Protein arginine N-methyltransferase 5 (Homo sapiens, UniProt O14744); metric IC50; compiled from varied reports.

Bench note, Protein arginine N-methyltransferase 5 (Homo sapiens, UniProt O14744): O=C(Nc1ccc(C2NCCc3c2[nH]c2ccccc32)cc1)c1ccc(C(F)(F)F)cc1 (centres undefined) , IC50 reads > 100 µM

Entry N=C(N)NCCC[C@H](N)C(=O)NCC(=O)N[C@@H](CCCN)C(=O)N[C@H](CCCNC(=N)NCCCSC[C@H]1O[C@@H](n2cnc3c(N)ncnc32)[C@H](O)[C@@H]1O)C(N)=O ; assay system Protein arginine N-methyltransferase 5 (Homo sapiens, UniProt O14744); IC50 recorded at 0.00042 µM

Lab entry: Protein arginine N-methyltransferase 5 (Homo sapiens, UniProt O14744) assay, compound COc1cc2c(NC3CCN(C(C)C)CC3)nc(C#N)nc2cc1OCCCN1CCCC1 , IC50 = > 10 µM

Let me check: CN1CCc2c([nH]c3ccccc23)C1c1ccc(NC(=O)c2ccc(F)c(C(F)(F)F)c2)cc1 (centres undefined) , system Protein arginine N-methyltransferase 5 (Homo sapiens, UniProt O14744), measured IC50 is > 100 µM

Observed IC50 on Protein arginine N-methyltransferase 5 (Homo sapiens, UniProt O14744), entry COc1cc2c(NC3CCN(C(C)C)CC3)nc(C#N)nc2cc1OCCCN1CCOCC1 , equals > 10 µM

Reading of IC50 for CN1CCc2c([nH]c3ccccc23)C1c1ccc(NC(=O)c2cccc([N+](=O)[O-])c2)cc1 (centres undefined) with Protein arginine N-methyltransferase 5 (Homo sapiens, UniProt O14744): > 100 µM

Reported Protein arginine N-methyltransferase 5 (Homo sapiens, UniProt O14744) IC50 for item CN1CCc2c([nH]c3ccccc23)C1c1ccc(NC(=O)c2cccc(C(F)(F)F)c2)cc1 (centres undefined) was > 100 µM

Lab entry: Protein arginine N-methyltransferase 5 (Homo sapiens, UniProt O14744) assay, compound CN1CCc2c([nH]c3ccccc23)C1c1ccc(OC(=O)c2ccccc2)cc1 (centres undefined) , IC50 = > 100 µM

Result for COC(=O)c1ccc(COc2ccc(C3NCCc4c3[nH]c3ccccc43)cc2OC)cc1 (centres undefined) , tested on Protein arginine N-methyltransferase 5 (Homo sapiens, UniProt O14744), IC50: 21.3 µM

Protein arginine N-methyltransferase 5 (Homo sapiens, UniProt O14744) data for COc1cc(C2NCCc3c2[nH]c2ccccc32)ccc1OC(=O)c1ccccc1 (centres undefined) ; its IC50: 48.7 µM

Form: item COc1cc(C2c3[nH]c4ccccc4c3CCN2C)ccc1OC(=O)c1ccccc1 (centres undefined) ; test system Protein arginine N-methyltransferase 5 (Homo sapiens, UniProt O14744); IC50: > 100 µM

Form field, IC50 with Protein arginine N-methyltransferase 5 (Homo sapiens, UniProt O14744), item O=C(Nc1ccc(C2NCCc3c2[nH]c2ccccc32)cc1)c1ccc(Cl)cc1 (centres undefined) : > 100 µM

Entry COc1cc(C2NCCc3c2[nH]c2ccccc32)ccc1OCc1ccc(F)c(Br)c1 (centres undefined) under Protein arginine N-methyltransferase 5 (Homo sapiens, UniProt O14744) had IC50 of 41.3 µM

Form: item CN1CCc2c([nH]c3ccccc23)C1c1ccc(NC(=O)c2cccc(F)c2)cc1 (centres undefined) ; test system Protein arginine N-methyltransferase 5 (Homo sapiens, UniProt O14744); IC50: > 100 µM

Field IC50 (Protein arginine N-methyltransferase 5 (Homo sapiens, UniProt O14744)), entry O=C(Nc1ccc(C2NCCc3c2[nH]c2ccccc32)cc1)c1ccc([N+](=O)[O-])cc1 (centres undefined) : > 100 µM

Entry N=C(N)Nc1cc(CN2C(=O)c3ccccc3C2C(=O)NCc2ccc(F)cc2)ccn1 (centres undefined) , tested on Protein arginine N-methyltransferase 5 (Homo sapiens, UniProt O14744), has a reported IC50 of > 30 µM

Summary line: CN1CCc2c([nH]c3ccccc23)C1c1ccc(NC(=O)c2cccc(Cl)c2)cc1 (centres undefined) , Protein arginine N-methyltransferase 5 (Homo sapiens, UniProt O14744), reported IC50 = > 100 µM

Hey, Protein arginine N-methyltransferase 5 (Homo sapiens, UniProt O14744) data for COc1cc(C2NCCc3c2[nH]c2ccccc32)ccc1OCc1ccc(C#N)cc1F (centres undefined) : IC50 came out at 70.4 µM

Let me check: COc1ccc2c(c1)C(=O)N(Cc1cnc(NC(=N)N)s1)C2C(=O)NCc1ccc(F)cc1 (centres undefined) , system Protein arginine N-methyltransferase 5 (Homo sapiens, UniProt O14744), measured IC50 is 0.38 µM
